- test_system: Cyclin-dependent kinase 2/cyclin E1 (Homo sapiens) (UniProt P24864+P24941)
- assay_explanation: Inhibition of recombinant human N-terminal GST-tagged CDK2 (M1 to L298 residues)/Cyclin E1 (M1 to A395 residues) expressed in sf9 cells at 1 uM using RB-CTF as substrate by filter binding assay
Activity calls are given as the source filed them. The rule behind the calls is not given here.
Classes used: true (1) (active), false (0) (inactive)

compound=CN1CCN(CCO/N=C2/C(=C3/C(=O)Nc4ccccc43)Nc3ccccc32)CC1 assigned_class="false (0)"
compound="O=C1Nc2ccccc2/C1=C1/Nc2ccccc2/C1=N\\OCC(O)CO (centres undefined)" assigned_class="true (1)"
compound=O=C1Nc2cc(Br)ccc2/C1=C1/Nc2ccccc2/C1=N\O assigned_class="true (1)"
compound=Cc1ccc2c(c1)NC(=O)/C2=C1\Nc2ccccc2\C1=N/O assigned_class="true (1)"

====

- test_system: UniProtKB Q96GD4
- assay_explanation: Inhibition of human N-terminal GST/His6-tagged Aurora B (A2 to A344 residues) expressed in sf9 cells at 1 uM using tetra(LRRLSLG) as substrate by filter binding assay
Activity calls are given as the source filed them. No cut-off for these calls is given here.
Classes used: active, inactive

molecule=Cc1ccc2c(c1)NC(=O)/C2=C1\Nc2ccccc2\C1=N/O assigned_class=active
molecule=CN1CCN(CCO/N=C2/C(=C3/C(=O)Nc4ccccc43)Nc3ccccc32)CC1 assigned_class=inactive
molecule="O=C1Nc2ccccc2/C1=C1/Nc2ccccc2/C1=N\\OCC(O)CO (centres undefined)" assigned_class=active
molecule=O=C1Nc2cc(Br)ccc2/C1=C1/Nc2ccccc2/C1=N\O assigned_class=active

====

- test_system: Cyclin-dependent kinase 5/CDK5 activator 1 (Homo sapiens)
- assay_explanation: Inhibition of recombinant human N-terminal GST-tagged CDK5 (M1 to P292 residues)/p35NCK (M1 to R307 residues) expressed in baculovirus infected sf9 cells using RB-CTF as substrate by filter binding assay
property: IC50 (µM)

compound_structure_string=CN1CCN(CCO/N=C2/C(=C3/C(=O)Nc4cc(Br)ccc43)Nc3ccccc32)CC1 property=IC50 readout_unit=µM readout_value=0.5

====

- test_system: Cyclin-dependent kinase 1/cyclin B1 (Homo sapiens) (UniProt P06493+P14635)
- assay_explanation: Inhibition of recombinant human N-terminal GST/His6-tagged CDK1 (M1 to M297 residues)/Cyclin B1 (M1 to V433 residues) expressed in sf9 cells at 1 uM using RB-CTF as substrate by filter binding assay
Calls of active or inactive are those of the source. The rule behind the calls is not given here.
Classes used: active, inactive

compound="O=C1Nc2ccccc2/C1=C1/Nc2ccccc2/C1=N\\OCC(O)CO (centres undefined)" assigned_class=active
compound=Cc1ccc2c(c1)NC(=O)/C2=C1\Nc2ccccc2\C1=N/O assigned_class=active
compound=O=C1Nc2cc(Br)ccc2/C1=C1/Nc2ccccc2/C1=N\O assigned_class=active
compound=CN1CCN(CCO/N=C2/C(=C3/C(=O)Nc4ccccc43)Nc3ccccc32)CC1 assigned_class=inactive

====

- test_system: Aurora kinase A (Homo sapiens)
- assay_explanation: Inhibition of human N-terminal GST/His6-tagged Aurora A (M1 to S403 residues) expressed in baculovirus infected sf9 cells at 1 uM using tetra(LRRLSLG) as substrate by filter binding assay
Calls of active or inactive are those of the source. No cut-off for these calls is given here.
property: inhibition

compound=Cc1ccc2c(c1)NC(=O)/C2=C1\Nc2ccccc2\C1=N/O test_system="Aurora kinase A (Homo sapiens)" property=inhibition readout_value=Active
compound=O=C1Nc2cc(Br)ccc2/C1=C1/Nc2ccccc2/C1=N\O test_system="Aurora kinase A (Homo sapiens)" property=inhibition readout_value=Active
compound="O=C1Nc2ccccc2/C1=C1/Nc2ccccc2/C1=N\\OCC(O)CO (centres undefined)" test_system="Aurora kinase A (Homo sapiens)" property=inhibition readout_value=Active
